target: MAP kinase-activated protein kinase 2 (Homo sapiens); conditions: at 1 µM;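 also: values are mean inhibition from the GSK PKIS screen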

[
  {
    "Smiles Repr": "c1cnn2ncc(-c3ccnc(Nc4ccc5c(c4)OCCO5)n3)c2c1",
    "Assayed Target": "MAP kinase-activated protein kinase 2 (Homo sapiens)",
    "inhibition / %": 2.24
  },
  {
    "Smiles Repr": "Cc1cccc(-c2n[nH]cc2-c2ccc3ncccc3n2)n1",
    "Assayed Target": "MAP kinase-activated protein kinase 2 (Homo sapiens)",
    "inhibition / %": -0.07
  },
  {
    "Smiles Repr": "CCn1c(-c2nonc2N)nc2cncc(C(=O)N3CCNCC3)c21",
    "Assayed Target": "MAP kinase-activated protein kinase 2 (Homo sapiens)",
    "inhibition / %": 5.04
  },
  {
    "Smiles Repr": "CCCN1CCC(Oc2cc(Nc3nc(Nc4cccc(F)c4C(N)=O)c4cc[nH]c4n3)c(OC)cc2Cl)CC1",
    "Assayed Target": "MAP kinase-activated protein kinase 2 (Homo sapiens)",
    "inhibition / %": -0.66
  },
  {
    "Smiles Repr": "CCCN1CCC=C(c2ccc(Nc3nc(Nc4ccccc4C(N)=O)c4cc[nH]c4n3)c(C)c2)C1",
    "Assayed Target": "MAP kinase-activated protein kinase 2 (Homo sapiens)",
    "inhibition / %": 4.94
  },
  {
    "Smiles Repr": "COc1cc2ncn(-c3cc(OCc4ccccc4Cl)c(C(N)=O)s3)c2cc1OC",
    "Assayed Target": "MAP kinase-activated protein kinase 2 (Homo sapiens)",
    "inhibition / %": -3.53
  },
  {
    "Smiles Repr": "COc1ccc(COc2ccc(Cc3cnc(N)nc3N)cc2OC)cc1",
    "Assayed Target": "MAP kinase-activated protein kinase 2 (Homo sapiens)",
    "inhibition / %": 3.22
  },
  {
    "Smiles Repr": "CS(=O)(=O)CCNCc1ccc(-c2ccc3ncnc(Nc4ccc(OCc5ccccc5)c(Cl)c4)c3c2)o1",
    "Assayed Target": "MAP kinase-activated protein kinase 2 (Homo sapiens)",
    "inhibition / %": -3.36
  },
  {
    "Smiles Repr": "CS(=O)(=O)CCN(CC#N)Cc1ccc(-c2ccc3ncnc(Nc4ccc(OCc5cccc(F)c5)c(Cl)c4)c3c2)o1",
    "Assayed Target": "MAP kinase-activated protein kinase 2 (Homo sapiens)",
    "inhibition / %": 0.64
  },
  {
    "Smiles Repr": "CN1CCC(C(=O)Nc2n[nH]c3nnc(-c4ccccc4)cc23)CC1",
    "Assayed Target": "MAP kinase-activated protein kinase 2 (Homo sapiens)",
    "inhibition / %": -0.73
  }
]
